# Tested on: Staphylococcus aureus
# experimental-details: Antimicrobial activity against methicillin-resistant Staphylococcus aureus 310 after 18 hrs by twofold serial microbroth dilution method
# Assay type: functional
# measurement-context: Staphylococcus aureus, 310, 18 h
As shown below, each of these molecules has a reported MIC value.
measured-metric: MIC

INSERT INTO measurements (smiles_text, recorded_value) VALUES
  ('CC1(C)S[C@@H]2[C@H](NC(=O)Cc3ccccc3)C(=O)N2[C@H]1C(=O)O', '128 µg/mL'),
  ('C[C@@H]1[C@@H]2COC(=O)C[C@H]2C[C@@H]1O', '> 128 µg/mL'),
  ('CO[C@H]1OC(=O)[C@H](C)[C@@H]2[C@@H]1[C@@H](CO)C[C@@H]2O', '> 128 µg/mL'),
  ('C[C@H]1[C@H](C)CC[C@]2(C)CC[C@]3(C(=O)O)C(=CC[C@@H]4[C@@]5(C)[C@H](O)C[C@H](O)C(C)(C)[C@@H]5CC[C@]43C)[C@H]12', '4 µg/mL');
